Biological target: recombinant human mGluR2 (Homo sapiens)
Sequence (Q14416 19-872): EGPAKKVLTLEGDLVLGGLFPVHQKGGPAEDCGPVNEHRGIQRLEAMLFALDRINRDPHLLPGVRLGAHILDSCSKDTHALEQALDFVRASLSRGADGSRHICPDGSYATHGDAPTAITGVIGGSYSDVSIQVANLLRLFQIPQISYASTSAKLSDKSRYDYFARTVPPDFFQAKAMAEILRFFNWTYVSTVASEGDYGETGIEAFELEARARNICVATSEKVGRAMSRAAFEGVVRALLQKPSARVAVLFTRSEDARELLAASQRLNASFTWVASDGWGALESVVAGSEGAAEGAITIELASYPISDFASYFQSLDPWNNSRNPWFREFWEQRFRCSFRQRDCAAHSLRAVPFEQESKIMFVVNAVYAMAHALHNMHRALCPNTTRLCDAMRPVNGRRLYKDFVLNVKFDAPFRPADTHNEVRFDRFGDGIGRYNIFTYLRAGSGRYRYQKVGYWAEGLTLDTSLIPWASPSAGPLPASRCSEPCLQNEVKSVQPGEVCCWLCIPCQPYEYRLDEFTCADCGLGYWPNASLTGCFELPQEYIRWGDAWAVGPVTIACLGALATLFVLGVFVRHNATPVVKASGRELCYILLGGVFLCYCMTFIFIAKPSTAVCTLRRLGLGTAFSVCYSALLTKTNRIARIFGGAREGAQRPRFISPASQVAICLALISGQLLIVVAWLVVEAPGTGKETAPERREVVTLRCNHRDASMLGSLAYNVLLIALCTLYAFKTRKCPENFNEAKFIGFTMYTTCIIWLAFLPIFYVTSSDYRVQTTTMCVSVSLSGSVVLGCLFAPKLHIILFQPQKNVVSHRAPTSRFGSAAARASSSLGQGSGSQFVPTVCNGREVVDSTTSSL
Experiment: FLIPR Ca2+ mobilization assay, potentiation of mGluR2
Conditions: potentiation with EC20 glutamate (900 nM); CHO dhfr- cells expressing human mGluR2 and Gα16
Method: Potencies are determined as follows. The compounds of the present invention may be tested in a fluorescence laser imaging plate reader (FLIPR) based assay. […] CHO dhfr-cells stably expressing recombinant human mGluR2 and Gα16 loaded with Fluo-4 AM (Invitrogen, Carlsbad Calif.) are treated with varying concentrations of compounds and the Ca^2+ response is monitored on a FLIPR384 (Molecular Devices, Sunnydale Calif.) for agonist activity. […]
Outcome measure: EC50 (nM)

Completed entries (count: 10):
Compound	U	EC50
Clc1c(-c2ccc(CN3CCNCC3)cc2)ccc2c1nnn2CC1CC1 [Example 71]	nM	234
CSc1c(-c2ccc(CN3CC(=O)N(C)C3=O)c(F)c2)ccc2c1nnn2CC1CC1 [Example 15]	nM	6.6
CN1CC(=O)N(Cc2ccc(-c3ccc4c(nnn4CC4CC4)c3Cl)cc2)C1=O [Example 85]	nM	8.9
CN1C(=O)CN(Cc2ccc(-c3ccc4c(nnn4CC4CC4)c3C=O)cc2)C1=O [Example 20]	nM	56
CC(C)(C)OC(=O)N1CCN(Cc2ccc(-c3ccc4c(nnn4CC4CC4)c3Cl)cc2)CC1 [Example 52]	nM	80
CC(C)Cn1nnc2c(Br)c(-c3ccc(CN4CC(=O)N(C)C4=O)cc3)ccc21 [Example 8]	nM	3
NCc1ccc(-c2ccc3c(nnn3CC3CC3)c2Cl)cc1 [Example 38]	nM	2320
CN1C(=O)CN(Cc2ccc(-c3ccc4c(nnn4CC4CC4)c3C(F)(F)F)c(F)n2)C1=O [Example 1]	nM	17.3
CCc1c(-c2ccc(CN3CC(=O)N(C)C3=O)cc2)ccc2c1nnn2CC1CC1 [Example 19]	nM	7.8
N#CCC(=O)N1CCN(Cc2ccc(-c3ccc4c(nnn4CC4CC4)c3Cl)cc2)CC1 [Example 72]	nM	30.4

(I) CCOC(=O)CNC(=O)NCc1ccc(-c2ccc3c(nnn3CC3CC3)c2Cl)cc1 [Example 83]
(II) CN1C(=O)CN(Cc2ccc(-c3ccc4c(nnn4CC4CC4)c3S(C)(=O)=O)cc2F)C1=O [Example 16]
(III) CN1C(=O)CN(Cc2ccc(-c3ccc4c(nnn4CC4CC4)c3C(F)(F)F)cc2)C1=O [Example 2]
(IV) O=C1CNC(=O)N1Cc1ccc(-c2ccc3c(nnn3CC3CC3)c2Cl)cc1 [Example 84]
(V) O=C1CN(Cc2ccc(-c3ccc4c(nnn4CC4CC4)c3C(F)(F)F)cc2)C(=O)N1 [Example 4]
Sequence the entries by EC50, beginning with the highest number. Answer by writing out the labels in the requested order.
II, I, IV, V, III

(1) CN1C(=O)CN(Cc2ccc(-c3ccc4c(nnn4CC4CC4)c3Cl)cc2)C1=O [Example 29]
(2) Cn1c(=O)[nH]n(Cc2ccc(-c3ccc4c(nnn4CC(C)(C)C)c3Br)cc2)c1=O [Example 7]
(3) CN1C(=O)CN(Cc2ccc(-c3ccc4c(nnn4CC4CC4)c3Br)cc2)C1=O [Example 10]
(4) [N-]=[N+]=NCc1ccc(-c2ccc3c(nnn3CC3CC3)c2Cl)cc1 [Example 37]
Arrange the 4 entries by EC50 so the values rise. Answer by writing out the labels in the requested order.
3, 1, 4, 2
(3: 5.3 nM, 1: 11.4 nM, 4: 53 nM, 2: 532 nM)
